# SYSTEM: Sodium-dependent serotonin transporter (Rattus norvegicus, UniProt P31652)
# Sequence (P31652 whole entry): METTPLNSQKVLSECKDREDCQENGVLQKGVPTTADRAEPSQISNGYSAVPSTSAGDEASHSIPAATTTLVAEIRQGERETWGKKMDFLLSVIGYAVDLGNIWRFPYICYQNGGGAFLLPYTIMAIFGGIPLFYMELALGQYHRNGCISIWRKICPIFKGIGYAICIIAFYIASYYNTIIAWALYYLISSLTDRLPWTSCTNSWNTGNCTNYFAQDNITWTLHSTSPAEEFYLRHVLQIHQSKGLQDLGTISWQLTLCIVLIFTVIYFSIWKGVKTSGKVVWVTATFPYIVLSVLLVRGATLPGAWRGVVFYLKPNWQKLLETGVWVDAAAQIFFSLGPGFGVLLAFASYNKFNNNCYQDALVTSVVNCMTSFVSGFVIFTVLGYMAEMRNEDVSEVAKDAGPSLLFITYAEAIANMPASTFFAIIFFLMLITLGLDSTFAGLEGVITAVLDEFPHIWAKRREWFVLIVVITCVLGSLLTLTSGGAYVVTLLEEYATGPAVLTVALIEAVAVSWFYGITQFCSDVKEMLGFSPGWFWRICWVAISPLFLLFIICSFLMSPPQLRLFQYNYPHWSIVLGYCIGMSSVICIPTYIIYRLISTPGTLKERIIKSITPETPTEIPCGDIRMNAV
TEST READOUT: Ki

Looking for the measured Ki of `COC(=O)[C@H](c1ccccc1)[C@H]1CCCCN1` , can you help?
> 10 µM

---

# SYSTEM: Sodium-dependent dopamine transporter (Rattus norvegicus)
# Sequence (P23977 whole entry): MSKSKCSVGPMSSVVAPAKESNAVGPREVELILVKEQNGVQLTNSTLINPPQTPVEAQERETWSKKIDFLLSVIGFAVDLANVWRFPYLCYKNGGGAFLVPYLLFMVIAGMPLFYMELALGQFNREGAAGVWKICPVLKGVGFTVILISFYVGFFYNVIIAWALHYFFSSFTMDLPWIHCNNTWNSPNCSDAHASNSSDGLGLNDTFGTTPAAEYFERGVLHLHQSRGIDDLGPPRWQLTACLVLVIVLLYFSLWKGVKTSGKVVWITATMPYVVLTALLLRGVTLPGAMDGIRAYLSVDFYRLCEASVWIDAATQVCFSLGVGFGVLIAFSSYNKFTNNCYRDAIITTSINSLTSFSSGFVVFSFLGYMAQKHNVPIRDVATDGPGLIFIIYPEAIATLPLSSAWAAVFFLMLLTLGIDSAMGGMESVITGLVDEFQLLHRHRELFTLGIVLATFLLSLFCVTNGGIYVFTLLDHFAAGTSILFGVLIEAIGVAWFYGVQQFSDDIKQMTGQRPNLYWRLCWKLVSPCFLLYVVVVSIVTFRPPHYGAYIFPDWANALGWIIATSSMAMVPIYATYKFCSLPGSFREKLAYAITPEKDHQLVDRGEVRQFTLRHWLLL
TEST READOUT: pKi
Give bare numbers, as −log10 of the molar value.

Looking for the measured pKi of `CCn1cc(C(=O)O)c(=O)c2ccc(Cc3ccccc3)nc21` , can you help?
7.73

---

// values below are pKi; system is Norepinephrine transporter (Rattus norvegicus)
Give bare numbers, as −log10 of the molar value.

Here are 3 molecules together with their reported answers.
MOLECULE: CNCCC(Oc1ccccc1OC)c1ccccc1 (stereo not given)
RECORDED RESULT: 9.34
--
MOLECULE: COC(=O)[C@H](c1ccccc1)[C@H]1CCCCN1
RECORDED RESULT: 6.90
--
MOLECULE: C[C@H](N)Cc1ccccc1 [beta-aminopropylbenzene]
RECORDED RESULT: 6.00

Continue with the next molecule.
Looking for the measured pKi of `COCCCC/C(=N\OCCN)c1ccc(C(F)(F)F)cc1` , can you help?
5.30
